Origin of measurements: patent US4056540A

assay: in vivo; conditions: mouse, po, 24 hours observation
Structures can show the parent of a compound that is named as a salt.
MEASURE_NAME: LD50 at 24 h (mg/kg)
Give bare numbers, in mg/kg.

| MOLECULE | SCALE_UNIT | LD50 at 24 h |
| --- | --- | --- |
| CC(C)NC[C@@H]1Oc2ccc(Cl)cc2[C@H](c2ccccc2)O1 (relative stereo) [BL-3396, hydrochloride] | mg/kg | 400 |
| CCC1(c2ccccc2)C(=O)NC(=O)NC1=O [Phenobarbital Na, reference compound] | mg/kg | 265 |
| CNC[C@H]1Oc2ccc(Cl)cc2[C@@H](c2ccccc2)O1.Cl (relative stereo) | mg/kg | 300 |
| NC[C@@H]1Oc2ccc(Cl)cc2[C@H](c2ccccc2)O1 (relative stereo) | mg/kg | 300 |
| CN1C(=O)OC(C)(C)C1=O [Trimethadione, reference compound] | mg/kg | 2170 |

Report LD50 at 24 h for CC(C)NC[C@H]1Oc2ccc(Cl)cc2[C@H](c2ccccc2F)O1.Cl (relative stereo) [BL-3681A] please.
300
